molecular target: recombinant human AMPK complex, containing α2β1γ2 (Homo sapiens, UniProt P54646+Q9Y478); construct: hsAMPKα2-552-His, hsAMPKβ1-2-270 and hsAMPKγ-2-569 respectively; hsAMPKβ1-2-270; hsAMPKγ-2-569; His (C); test: AMPK in vitro activation assay (HTRF); details: HTRF, recombinant human α2β1γ2 AMPK, 200 μM ATP, biotinylated ACC-CREBp peptide; repeat determinations on separate lines
Sequence (P54646 2-552): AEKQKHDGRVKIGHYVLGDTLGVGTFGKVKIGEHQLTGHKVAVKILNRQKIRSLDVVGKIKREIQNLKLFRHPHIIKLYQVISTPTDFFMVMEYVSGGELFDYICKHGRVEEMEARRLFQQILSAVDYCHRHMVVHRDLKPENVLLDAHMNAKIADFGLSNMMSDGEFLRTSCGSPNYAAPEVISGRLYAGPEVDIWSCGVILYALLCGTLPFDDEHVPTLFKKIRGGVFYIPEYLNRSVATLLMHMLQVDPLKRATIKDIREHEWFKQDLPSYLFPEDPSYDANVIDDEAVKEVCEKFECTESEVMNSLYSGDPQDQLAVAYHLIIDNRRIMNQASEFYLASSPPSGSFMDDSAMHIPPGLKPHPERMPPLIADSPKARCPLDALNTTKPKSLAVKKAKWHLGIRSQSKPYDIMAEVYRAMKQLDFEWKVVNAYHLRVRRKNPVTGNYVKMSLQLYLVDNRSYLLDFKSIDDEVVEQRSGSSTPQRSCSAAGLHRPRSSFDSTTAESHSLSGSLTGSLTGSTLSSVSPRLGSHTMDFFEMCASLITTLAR
Sequence (Q9Y478 2-270): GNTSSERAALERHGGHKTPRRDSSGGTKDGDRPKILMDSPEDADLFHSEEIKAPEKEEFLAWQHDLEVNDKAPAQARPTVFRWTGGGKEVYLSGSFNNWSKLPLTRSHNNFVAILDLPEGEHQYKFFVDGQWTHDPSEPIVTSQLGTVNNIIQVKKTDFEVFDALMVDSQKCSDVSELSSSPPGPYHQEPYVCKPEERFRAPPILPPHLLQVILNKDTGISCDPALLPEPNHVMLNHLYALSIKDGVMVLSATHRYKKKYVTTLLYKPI
Sequence (Q9UGJ0 2-569 partner limits assumed): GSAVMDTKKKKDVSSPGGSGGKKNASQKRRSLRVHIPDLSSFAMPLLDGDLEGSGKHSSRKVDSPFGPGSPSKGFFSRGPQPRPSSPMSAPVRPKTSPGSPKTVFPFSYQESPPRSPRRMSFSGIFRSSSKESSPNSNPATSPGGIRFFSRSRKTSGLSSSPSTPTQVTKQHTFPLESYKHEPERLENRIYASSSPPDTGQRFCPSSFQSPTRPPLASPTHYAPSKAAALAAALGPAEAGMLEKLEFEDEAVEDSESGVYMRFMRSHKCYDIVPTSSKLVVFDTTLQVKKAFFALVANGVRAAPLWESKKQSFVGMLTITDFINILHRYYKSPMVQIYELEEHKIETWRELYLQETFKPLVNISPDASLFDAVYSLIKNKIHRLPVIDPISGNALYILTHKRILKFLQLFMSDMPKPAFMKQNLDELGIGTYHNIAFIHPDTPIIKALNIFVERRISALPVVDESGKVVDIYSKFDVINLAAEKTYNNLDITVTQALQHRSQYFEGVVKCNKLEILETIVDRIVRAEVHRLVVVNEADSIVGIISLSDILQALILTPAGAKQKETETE
Where a name gives a salt, the structure may show the parent alone.
I'd appreciate it if you could supply log10 EC50 values for the items below.
Reminder: these figures are log10 of reported EC50, in nM before transformation.

Recorded results for 5 compounds are shown here.
- COMPOUND: "COc1cccc(-c2ccc(-c3cc4c(cc3Cl)NC(=O)C4=C(O)c3cc(OC(C)C)no3)cc2)c1O"
  REPORTED: -0.22
- COMPOUND: "COc1cc(C(O)=C2C(=O)Nc3cc(Cl)c(-c4ccc(OC5CCC(O)CC5)cc4)cc32)on1 (stereo not shown)"
  REPORTED: 0.95
- COMPOUND: "Cc1cc(C(O)=C2C(=O)Nc3cc(Cl)c(-c4ccc(F)cc4)cc32)on1"
  REPORTED: 2.38
- COMPOUND: "COc1cc(C(O)=C2C(=O)Nc3cc(Cl)c(-c4ccc(C5(O)CCOCC5)cc4)cc32)on1"
  REPORTED: 0.85
- COMPOUND: "O=C1Nc2cc(Cl)c(-c3ccc4ccccc4c3)cc2C1=C(O)c1cccc(F)c1"
  REPORTED: 3.60

Below is a list of compounds. For each, state its recorded log10 EC50.
1. COCCOc1cc(C(O)=C2C(=O)Nc3cc(Cl)c(-c4ccc(-c5cccc(OC)c5O)cc4)cc32)on1
2. COc1cc(C(O)=C2C(=O)Nc3cc(Cl)c(-c4ccc(C(CO)CO)cc4)cc32)on1

1: 1.58; 2: 0.60

Below is a list of compounds. For each, state its recorded log10 EC50.
1. O=C1Nc2cc(Cl)c(-c3ccc(C4(CO)CC4)cc3)cc2C1=C(O)c1cc2ncccc2o1
2. COc1cc(C(O)=C2C(=O)Nc3cc(Cl)c(-c4ccc(C5CC(O)C5)cc4)cc32)on1 (stereo not shown)
3. CN(C)c1ccc(-c2cc3c(cc2Cl)NC(=O)C3=C(O)c2cccc(C(=O)O)c2)cc1
4. Cc1cc(C(O)=C2C(=O)Nc3cc(Cl)c(-c4ccc(OCCCN5CCNCC5)cc4)cc32)on1 [Compound 69, hydrochloride]

1. -1.00
2. 0.95
3. 1.52
4. 0.90

Below is a list of compounds. For each, state its recorded log10 EC50.
1. O=C1Nc2cc(Cl)c(-c3ccc(C4(CO)CC4)cc3)cc2C1=C(O)c1ccco1
2. O=C1Nc2cc(Cl)c(-c3ccc(C4(CO)CC4)cc3)cc2C1=C(O)c1cccs1
3. O=C1Nc2cc(Cl)c(-c3ccc(C4(CO)CC4)cc3)cc2C1=C(O)c1ccccc1F
4. COc1cc(C(O)=C2C(=O)Nc3cc(Cl)c(-c4ccc5c(ccn5C)c4)cc32)on1
5. Cc1cc(C(O)=C2C(=O)Nc3cc(Cl)c(-c4ccc(C5(CO)CC5)cc4F)cc32)on1
6. CC(C)(C)c1cc(C(O)=C2C(=O)Nc3cc(Cl)c(-c4ccc(C5CC(O)C5)cc4)cc32)on1 (stereo not shown)
7. COc1cccc(-c2ccc(-c3cc4c(cc3Cl)NC(=O)C4=C(O)c3cc(C)no3)cc2)c1O
8. Cc1ncc(C(O)=C2C(=O)Nc3cc(Cl)c(-c4ccc(N(C)C)cc4)cc32)s1

-0.52
0.60
0.78
-0.15
0.00
1.04
0.60
1.95

Below is a list of compounds. For each, state its recorded log10 EC50.
1. COc1cc(C(O)=C2C(=O)Nc3cc(F)c(-c4ccc(C5(CO)CC5)cc4)c(F)c32)on1
2. Cc1cc(C(O)=C2C(=O)Nc3cc(Cl)c(-c4ccc(C5(CO)CC5)cc4)cc32)on1
3. COc1ccc(-c2cc3c(cc2Cl)NC(=O)C3=C(O)c2cc(C)no2)cc1

[-1.00, 0.85, 2.61]
